target: KRas^G12C (Homo sapiens, UniProt P01116, G12C); experiment: biochemical
Sequence (P01116 1-169 isoform P01116-2 G12C): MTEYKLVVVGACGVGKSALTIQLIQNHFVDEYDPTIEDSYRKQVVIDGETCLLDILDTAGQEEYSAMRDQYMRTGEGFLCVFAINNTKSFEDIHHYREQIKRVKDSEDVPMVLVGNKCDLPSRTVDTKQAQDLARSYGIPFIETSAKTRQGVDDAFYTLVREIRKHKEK
pIC50: −log10 of the molar value.
readout_type: pIC50

molecule	pIC50
CCc1cccc2cccc(N3CCc4c(nc(OCC56CCCN5CCC6)nc4N4CCCC(c5ncn[nH]5)C4)C3)c12 (centres unmarked)	6.13
CCc1cccc2cccc(N3CCc4c(nc(OCC56CCCN5CCC6)nc4NCCNc4ncccc4C#N)C3)c12	5.75

I. CCc1cccc2cccc(N3CCc4c(nc(OCC56CCCN5CCC6)nc4N4CC[C@H]5C(=O)NC[C@H]5C4)C3)c12
II. CCc1cccc2cccc(N3CCc4c(nc(OCC56CCCN5CCC6)nc4N4CCC(CO)C(O)C4)C3)c12 (centres unmarked)
III. CCc1cccc2cccc(N3CCc4c(nc(OCC56CCCN5CCC6)nc4N4CCCC(C(C)O)C4)C3)c12 (centres unmarked)
Kindly order the items shown according to pIC50, from the highest value down. Give the labels in the order requested. II, III, I

meta.source: patent US12421253B2
